Origin of the recorded values: the Kinase Knowledgebase extract (Sharma et al. 2016)

targetOfAssay: CDK2 (human) (UniProt P24941)
pKi: −log10 of the molar value.
Each entry below lists one item and its recorded pKi value.

compound	targetOfAssay	pKi
Cc1cc(Nc2cc(-c3ccco3)[nH]n2)nc(COc2ccc3c(=O)[nH][nH]c3c2)n1	CDK2 (human) (UniProt P24941)	> 6.00
O=C(CCNc1ccc2c(=O)[nH][nH]c2c1)Nc1ccccn1	CDK2 (human) (UniProt P24941)	> 6.00
C#Cc1c(-c2nc(Nc3n[nH]c4ccc(F)cc34)c3ccccc3n2)ccc2[nH][nH]c(=O)c12	CDK2 (human) (UniProt P24941)	> 6.00
O=c1[nH][nH]c2cc(Nc3cccc(Nc4n[nH]c5ccccc45)n3)ccc12	CDK2 (human) (UniProt P24941)	> 6.00
O=c1[nH][nH]c2ccc(C3CCC(Nc4ccccn4)C3)cc12 (centres undefined)	CDK2 (human) (UniProt P24941)	> 6.00
Cc1c(Nc2n[nH]c3ccccc23)nc(-c2cc3c(=O)[nH][nH]c3cc2Cl)nc1N1CCOCC1	CDK2 (human) (UniProt P24941)	> 6.00
O=c1[nH][nH]c2cc(CCCONc3ccccn3)ccc12	CDK2 (human) (UniProt P24941)	> 6.00
Cc1cc(Nc2nc(Nc3ccc4c(=O)[nH][nH]c4c3)nc3c2CCCCC3)n[nH]1	CDK2 (human) (UniProt P24941)	> 6.00
CN1CCN(c2cccc3c(Nc4n[nH]c5c(F)cccc45)nc(-c4ccc5[nH][nH]c(=O)c5c4C(F)(F)F)nc23)CC1	CDK2 (human) (UniProt P24941)	> 6.00
